- studySystem: Cdk4/CyclinD1 (Homo sapiens (Human), UniProt P11802)
- Sequence (P11802 whole entry): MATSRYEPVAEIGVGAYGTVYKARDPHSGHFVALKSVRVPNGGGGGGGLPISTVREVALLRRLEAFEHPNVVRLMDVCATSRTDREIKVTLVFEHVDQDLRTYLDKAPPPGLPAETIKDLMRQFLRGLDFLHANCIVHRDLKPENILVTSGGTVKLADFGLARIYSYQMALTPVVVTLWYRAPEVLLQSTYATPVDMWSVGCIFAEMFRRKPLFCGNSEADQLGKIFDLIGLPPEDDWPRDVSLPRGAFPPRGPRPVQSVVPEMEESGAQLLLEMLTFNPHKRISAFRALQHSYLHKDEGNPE
- Sequence (P24385 whole entry partner): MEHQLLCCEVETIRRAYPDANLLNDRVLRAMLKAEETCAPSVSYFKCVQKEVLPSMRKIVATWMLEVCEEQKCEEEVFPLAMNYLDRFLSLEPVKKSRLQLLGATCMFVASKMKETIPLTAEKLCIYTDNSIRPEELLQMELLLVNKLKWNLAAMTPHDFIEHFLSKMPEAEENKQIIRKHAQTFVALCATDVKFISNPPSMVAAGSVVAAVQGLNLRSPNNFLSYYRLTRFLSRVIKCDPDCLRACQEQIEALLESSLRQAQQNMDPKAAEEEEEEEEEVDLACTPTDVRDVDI
- measurementProtocol: Cdk4 kinase inhibition assay with recombinant Cdk4/CyclinD1, Rb substrate, [33P]-ATP filter plate
- experimentalContext: 25 μM ATP, read-out: Cdk 4 IC50
Assignment: determine reported log10 IC50 for the given compounds.
Friendly reminder: values = log10 of IC50, unit nM.

Below, 3 compounds whose answers are already recorded.
compound	log10 IC50
c1cc2c3cnc(Nc4ccc(N5CCC6(CCCN6)CC5)cn4)nc3n(C3CCCC3)c2cn1 [Example 231]	0.52
OC[C@H]1CN(c2ccc(Nc3ncc4c5ccnc(F)c5n(C5CCCC5)c4n3)nc2)CCN1 [Example 196]	0.38
O=c1[nH]ccc2c3cnc(Nc4ccc(N5CCNCC5)nn4)nc3n(C3CCCC3)c12 [Example 122]	0.94

Report log10 IC50 for every entry below.
1. OC1CCN(C2CCN(c3ccc(Nc4ncc5c6ccncc6n(C6CCCC6)c5n4)nc3)CC2)CC1 [Example 463]
2. O[C@@H]1CCC[C@@H]1n1c2cnccc2c2cnc(Nc3ccc(N4CCNCC4)cn3)nc21 [Example 361]
3. C[C@@H]1CNCCN1c1ccc(Nc2ncc3c4ccnc(F)c4n(C4CCCC4)c3n2)nc1 [Example 180]
4. CN(C)C1CCN(c2ccc(Nc3ncc4c5ccnc(Cl)c5n(C5CCCC5)c4n3)nn2)CC1 [Example 154]
5. O[C@@H]1CCN(c2ccc(Nc3ncc4c5ccncc5n([C@H]5CCC[C@@H]5O)c4n3)nn2)C1 [Example 408]

Given back:
[1.18, 1.64, 0.30, 1.30, 1.64]
